The origin of these recorded values is patent US9415034B2.

Test: in vivo
Conditions: male, Sprague-Dawley, rat, serum, iv, 1 mg/Kg
metric: MRT (min)

chemical.string	metric	value.measured
Oc1ccc2c3c1O[C@H]1[C@@H](O)CC[C@@]4(O)[C@@H](C2)N(CC2CCC2)CC[C@]314	MRT	59

====

Tested on: UGT2B
Experiment: in vitro
Conditions: male, Sprague-Dawley, rat, % Inhibition (Mean ± SD)
inhibition at 60 min, 850 µM vs 60%: at or above is true, below is false.

compound	test.target	assigned.label
O=c1cc(-c2ccccc2)oc2c1ccc1ccccc12 [α-naphthoflavone, α- Naphthoflavone]	UGT2B	true
C=C(C)C1CC=C(C)CC1 (single isomer, unassigned; (+)) [(+)-limonene, (+)-Limonene]	UGT2B	false
O=c1cc(-c2ccccc2)oc2ccc3ccccc3c12 [β-naphthoflavone, β- Naphthoflavone]	UGT2B	true
O=C/C=C/c1ccccc1 [trans-cinnamaldehyde, Trans- Cinnamaldehyde]	UGT2B	false
O=c1cc(-c2ccc(O)cc2)oc2cc(O)cc(O)c12 [apigenin, Apigenin]	UGT2B	false
O=c1c(-c2ccc(O)cc2)coc2c([C@@H]3O[C@H](CO)[C@@H](O)[C@H](O)[C@H]3O)c(O)ccc12 [puerarin, Puerarin]	UGT2B	false
CC1(C)[C@@H](O[C@H]2O[C@H](C(=O)O)[C@@H](O)[C@H](O)[C@H]2O[C@@H]2O[C@H](C(=O)O)[C@@H](O)[C@H](O)[C@H]2O)CC[C@]2(C)[C@H]3C(=O)C=C4[C@@H]5C[C@@](C)(C(=O)O)CC[C@]5(C)CC[C@@]4(C)[C@]3(C)CC[C@@H]12 [glycyrrhizin, Glycyrrhizin]	UGT2B	false
COc1c(O)cc2oc(Oc3ccc(O)cc3)cc(=O)c2c1O [capillarisin, Capillarisin]	UGT2B	true
